Hey, just so you know, these numbers are from patent US20180271998A1.

Please respond with reported binding strength compared to wild-type protein conjugate for every item in the list.
- Experimental Target: T1, Recombinant, Human EphA2 with C-terminal hexahistidine appended (human, UniProt P29317 25-534)
- T1 construct: Captured on anti-His5 sensors; also called his-tagged recombinant, human EphA
- T1 sequence (P29317 other isoform, or with tags, fused parts or gaps limits assumed): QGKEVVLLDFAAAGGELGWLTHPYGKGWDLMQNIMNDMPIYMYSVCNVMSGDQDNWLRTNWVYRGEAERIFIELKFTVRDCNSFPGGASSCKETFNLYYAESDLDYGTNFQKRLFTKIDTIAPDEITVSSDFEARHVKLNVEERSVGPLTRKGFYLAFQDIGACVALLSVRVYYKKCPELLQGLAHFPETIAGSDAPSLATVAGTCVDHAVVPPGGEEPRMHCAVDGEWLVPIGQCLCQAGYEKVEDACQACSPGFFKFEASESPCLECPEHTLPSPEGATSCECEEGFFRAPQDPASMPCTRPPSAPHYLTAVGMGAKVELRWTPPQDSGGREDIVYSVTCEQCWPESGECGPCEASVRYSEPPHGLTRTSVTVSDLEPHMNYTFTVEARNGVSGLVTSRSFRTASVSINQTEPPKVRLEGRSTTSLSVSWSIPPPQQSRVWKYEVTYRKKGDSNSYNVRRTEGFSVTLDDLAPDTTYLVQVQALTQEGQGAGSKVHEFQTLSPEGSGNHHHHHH
- Assay Overview: BLI (Octet Red 96), EphA2-His on anti-His5 sensors, Fab-PEG-DSPE conjugate
Number only, in %; omit the unit.

Exercise: Query binding strength compared to wild-type protein conjugate for anti-EphA2 Fab 12 (IgG1 G44C, C233S heavy chain; lambda G100C, C214S light chain), Fab-PEG-DSPE conjugate (Fab, V domains shown, mal-PEG(2000)-DSPE linker conjugated to the C-terminal cysteine of the heavy chain (Cys in DKTHTCAA)) VH: QVQLVQSGGGLVQPGGSLRLSCAASGFTFSSYAMHWVRQAPGKCLEWVTVISPDGHNTYYADSVKGRFTISRDNSKNTLYLQMNSLRAEDTAVYYCARASVGATGPFDIWGQGTLVTVSS VL: SSELTQPPSVSVAPGQTVTITCQGDSLRSYYASWYQQKPGTAPKLLIYGENNRPSGVPDRFSGSSSGTSASLTITGAQAEDEADYYCNSRDSSGTHLTVFGCGTKLTVLG
Solution: 75

Exercise: Query binding strength compared to wild-type protein conjugate for anti-EphA2 Fab 18 (IgG1 G44L, H172E, F174C, C233S heavy chain; lambda G100L, T162D, S176C, C214S light chain), Fab-PEG-DSPE conjugate (Fab, V domains shown, mal-PEG(2000)-DSPE linker conjugated to the C-terminal cysteine of the heavy chain (Cys in DKTHTCAA)) VH: QVQLVQSGGGLVQPGGSLRLSCAASGFTFSSYAMHWVRQAPGKLLEWVTVISPDGHNTYYADSVKGRFTISRDNSKNTLYLQMNSLRAEDTAVYYCARASVGATGPFDIWGQGTLVTVSS VL: SSELTQPPSVSVAPGQTVTITCQGDSLRSYYASWYQQKPGTAPKLLIYGENNRPSGVPDRFSGSSSGTSASLTITGAQAEDEADYYCNSRDSSGTHLTVFGLGTKLTVLG
Solution: 75
